IC50 values for the compounds below.
- SYSTEM_TESTED: CD73 on U138 human neuroglioma cells (Homo sapiens)
- Construct: U138 cells were obtained from ATCC and cultured in DMEM with 10% FBS; host or cells: U138 human neuroglioma cells
- Sequence (P21589 27-549): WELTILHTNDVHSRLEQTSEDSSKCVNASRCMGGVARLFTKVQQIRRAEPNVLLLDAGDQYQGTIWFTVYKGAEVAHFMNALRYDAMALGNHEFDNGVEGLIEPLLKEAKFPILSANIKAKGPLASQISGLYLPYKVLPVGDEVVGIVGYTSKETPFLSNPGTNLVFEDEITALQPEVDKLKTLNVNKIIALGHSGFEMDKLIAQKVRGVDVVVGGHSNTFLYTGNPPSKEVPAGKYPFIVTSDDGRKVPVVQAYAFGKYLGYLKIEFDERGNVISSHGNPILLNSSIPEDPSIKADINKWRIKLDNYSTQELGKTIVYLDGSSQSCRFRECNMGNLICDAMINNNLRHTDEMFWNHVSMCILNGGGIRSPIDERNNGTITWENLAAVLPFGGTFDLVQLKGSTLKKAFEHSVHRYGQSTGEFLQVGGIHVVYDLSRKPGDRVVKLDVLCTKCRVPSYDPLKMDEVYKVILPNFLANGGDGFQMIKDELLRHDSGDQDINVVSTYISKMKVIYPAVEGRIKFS
- EXPERIMENT: CD73 Cell-Based Assay
- TEST_CONDITIONS: U138 cells, AMP substrate, 2 hours at 37° C., inorganic phosphate by malachite green
READOUT_LABEL: IC50

COMPOUND: CN(c1nc(Cl)nc2c1ccn2[C@@H]1O[C@H](COCP(=O)(O)O)[C@@H](O)[C@H]1O)C1CCCC1
SYSTEM_TESTED: CD73 on U138 human neuroglioma cells (Homo sapiens)
READOUT_LABEL: IC50
RESULT: < 10 nM

COMPOUND: C[C@H](Nc1nc(Cl)nc2c1cnn2[C@@H]1O[C@H](COCP(=O)(O)O)[C@@H](O)[C@H]1O)c1ccc(F)cc1
SYSTEM_TESTED: CD73 on U138 human neuroglioma cells (Homo sapiens)
READOUT_LABEL: IC50
RESULT: 10 to 100 nM

COMPOUND: C[C@@H](Nc1nc(Cl)nc2c1ccn2C1O[C@H](COCP(=O)(O)O)[C@@H](O)[C@H]1O)c1ccc(C2CC2)cc1 (stereo partly drawn)
SYSTEM_TESTED: CD73 on U138 human neuroglioma cells (Homo sapiens)
READOUT_LABEL: IC50
RESULT: < 10 nM

---

Recorded pIC50, one value per entry.
- SYSTEM_TESTED: Human CD73 (Homo sapiens, UniProt P21589)
- Construct: purchased R&D Systems; host or cells: CHO cells
- EXPERIMENT: CD73 Enzyme Assay
- Type: biochemical
- TEST_CONDITIONS: 0.25 nM hCD73, 25 μM AMP, kinetic read at 360 nm; read-out: CD73 Enzyme Assay IC50
pIC50: −log10 of the molar value.

MOLECULE: C[C@H](Nc1nc(Cl)nc2c1ncn2[C@@H]1O[C@H](CS(=O)(=O)CP(=O)(O)O)[C@@H](O)[C@H]1O)c1ccccc1 [Compound 152]
pIC50: 7.00 to 8.00
--
MOLECULE: O=P(O)(O)COC[C@H]1O[C@@H](n2cnc3c(NCc4ccccc4)nc(Cl)nc32)[C@H](O)[C@@H]1O [Compound 3]
pIC50: 6.00 to 7.00
--
MOLECULE: O=P(O)(O)COC[C@H]1O[C@@H](n2ccc3c(NC4CCCC4)nc(Cl)nc32)[C@H](O)[C@@H]1O [Compound 70]
pIC50: > 8.00
--
MOLECULE: CC[C@H](Nc1nc(Cl)nc2c1ccn2[C@@H]1O[C@H](COCP(=O)(O)O)[C@@H](O)[C@H]1O)c1ccccc1 [Compound 84]
pIC50: > 8.00
--
MOLECULE: O=P(O)(O)COC[C@H]1O[C@@H](n2ncc3c(NC4CCC4)nc(Cl)nc32)[C@H](O)[C@@H]1O [Compound 270]
pIC50: > 8.00
--
MOLECULE: C[C@H](Nc1nc(Cl)nc2c1ccn2[C@@H]1O[C@H](COCP(=O)(O)O)[C@@H](O)[C@H]1O)c1ccc(F)cc1 [Compound 68]
pIC50: 7.00 to 8.00
--
MOLECULE: O=P(O)(O)COC[C@H]1O[C@@H](c2ccc3c(NC4CCCC4)nc(Cl)nn23)[C@H](O)[C@@H]1O [Compound 298]
pIC50: > 8.00

---

- SYSTEM_TESTED: CD73 on U138 human neuroglioma cells (Homo sapiens, UniProt P21589)
- Construct: U138 cells were obtained from ATCC and cultured in DMEM with 10% FBS; host or cells: U138 human neuroglioma cells
- Sequence (P21589 27-549): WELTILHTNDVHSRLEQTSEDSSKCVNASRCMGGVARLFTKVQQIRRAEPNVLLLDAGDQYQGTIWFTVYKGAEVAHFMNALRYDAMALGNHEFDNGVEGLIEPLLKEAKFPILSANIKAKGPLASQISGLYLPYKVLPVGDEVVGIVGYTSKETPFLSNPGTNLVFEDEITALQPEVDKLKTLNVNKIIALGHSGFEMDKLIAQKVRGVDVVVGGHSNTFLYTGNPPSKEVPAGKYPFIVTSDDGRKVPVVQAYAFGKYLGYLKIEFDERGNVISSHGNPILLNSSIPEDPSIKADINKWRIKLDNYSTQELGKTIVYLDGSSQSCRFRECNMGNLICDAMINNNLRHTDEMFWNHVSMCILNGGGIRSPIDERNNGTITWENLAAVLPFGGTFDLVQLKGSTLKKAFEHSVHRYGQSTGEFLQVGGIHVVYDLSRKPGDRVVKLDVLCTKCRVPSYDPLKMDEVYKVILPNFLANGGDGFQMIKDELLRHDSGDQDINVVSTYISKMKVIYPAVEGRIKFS
- EXPERIMENT: CD73 Cell-Based Assay
- TEST_CONDITIONS: U138 cells, AMP substrate, 2 hours at 37° C., inorganic phosphate by malachite green
pIC50: −log10 of the molar value.

SMILES: COC(=O)OCOP(=O)(O)COC[C@H]1O[C@@H](n2ccc3c(NC4CCCC4)nc(Cl)nc32)[C@H](O)[C@@H]1O
pIC50: 7.00 to 8.00

SMILES: O=P(O)(O)COC[C@H]1O[C@@H](n2ccc3c(OC4CCCC4)nc(Cl)nc32)[C@H](O)[C@@H]1O
pIC50: 7.00 to 8.00

SMILES: C[C@@H](Nc1nc(Cl)nc2c1cnn2[C@@H]1O[C@H](COCP(=O)(O)O)[C@@H](O)[C@H]1O)c1ccc(F)cc1
pIC50: > 8.00

SMILES: CC(C)C(=O)COP(=O)(O)COC[C@H]1O[C@@H](n2ccc3c(NC4CCCC4)nc(Cl)nc32)[C@H](O)[C@@H]1O
pIC50: 6.00 to 7.00

SMILES: CC(C)C(=O)OCOP(=O)(O)COC[C@H]1O[C@@H](n2ccc3c(NC4CCCC4)nc(Cl)nc32)[C@H](O)[C@@H]1O
pIC50: > 8.00

SMILES: C[C@@H](Nc1nc(Cl)nc2c1ccn2[C@@H]1O[C@H](COCP(=O)(O)O)[C@@H](O)[C@H]1O)c1ccc(C(F)(F)F)cc1
pIC50: > 8.00

---

- SYSTEM_TESTED: CD73 on U138 human neuroglioma cells (Homo sapiens)
- Construct: U138 cells were obtained from ATCC and cultured in DMEM with 10% FBS; host or cells: U138 human neuroglioma cells
- EXPERIMENT: CD73 Cell-Based Assay
- TEST_CONDITIONS: U138 cells, AMP substrate, 2 hours at 37° C., inorganic phosphate by malachite green

COMPOUND: N#Cc1nc(N2CC3CCCC3C2)c2cnn([C@@H]3O[C@H](CS(=O)(=O)CP(=O)(O)O)[C@@H](O)[C@H]3O)c2n1 (stereo partly shown)
IC50: < 10 nM
//
COMPOUND: CN(c1nc(Cl)nc2c1ncn2[C@@H]1O[C@H](COCP(=O)(O)O)[C@@H](O)[C@H]1O)C1CCCC1
IC50: 10 to 100 nM
//
COMPOUND: Cc1cn([C@@H]2O[C@H](COCP(=O)(O)O)[C@@H](O)[C@H]2O)c2nc(Cl)nc(NC3CCCC3)c12
IC50: > 1000 nM
//
COMPOUND: C[C@H](Nc1nc(C#N)nc2c1ncn2[C@@H]1O[C@H](COCP(=O)(O)O)[C@@H](O)[C@H]1O)c1ccccc1
IC50: 10 to 100 nM

---

- SYSTEM_TESTED: Human CD73 (Homo sapiens)
- Construct: purchased R&D Systems; host or cells: CHO cells
- EXPERIMENT: CD73 Enzyme Assay
- Assay type: biochemical
- TEST_CONDITIONS: 0.25 nM hCD73, 25 μM AMP, kinetic read at 360 nm; read-out: CD73 Enzyme Assay IC50

COMPOUND: C[C@@H](Nc1nc(Cl)nc2c1ccn2[C@@H]1O[C@H](COCP(=O)(O)O)[C@@H](O)[C@H]1O)c1cccc(F)c1 [Compound 82]
IC50: 10 to 100 nM

COMPOUND: NC(=O)c1cccc(CNc2ncnc3c2ncn3[C@@H]2O[C@H](COCP(=O)(O)O)[C@@H](O)[C@H]2O)c1 [Compound 65]
IC50: > 1000 nM

COMPOUND: O=P(O)(O)COC[C@H]1O[C@@H](n2cnc3c(NCCO)ncnc32)[C@H](O)[C@@H]1O [Compound 13]
IC50: > 1000 nM

COMPOUND: O=P(O)(O)COC[C@H]1O[C@@H](n2ccc3c(N4CCCC4)nc(Cl)nc32)[C@H](O)[C@@H]1O [Compound 190]
IC50: < 10 nM

COMPOUND: O=C(OCOP(=O)(O)COC[C@H]1O[C@@H](n2ccc3c(NC4CCCC4)nc(Cl)nc32)[C@H](O)[C@@H]1O)N1CCOCC1 [Compound 237]
IC50: 10 to 100 nM

COMPOUND: N#Cc1nc(NC2CCCCC2)c2ccn([C@@H]3O[C@H](COCP(=O)(O)O)[C@@H](O)[C@H]3O)c2n1 [Compound 119]
IC50: < 10 nM

COMPOUND: C[C@@H](Nc1nc(Cl)nc2c1ccn2[C@@H]1O[C@H](COCP(=O)(O)O)[C@@H](O)[C@H]1O)c1ccccc1 [Compound 61]
IC50: < 10 nM
